- Tested on: E. coli strain W3110
- ASSAY REMARKS: Synergy assays: Biolog chemical sensitivity panels with Group IB metal, coefficient of drug interaction (CDI) from relative growth
- Assay type: cell-based
- MEASUREMENT CONTEXT: Gold section of Table 5; first of three gold concentrations (μM, value not given); biocide concentration 2 of 4
Quick rule for you: CDI (coefficient of drug interaction) at 1 or higher means YES, lower means NO.

COMPOUND	GROUP
C[n+]1ccc(-c2cc[n+](C)cc2)cc1	YES
CCCCCCCC[N+](C)(CCCCCCCC)CCCCCCCC.[Br-]	YES
CN[C@H]1C[C@@H](N)[C@H](O)[C@@H](O[C@@H]2O[C@H](CO)[C@H](O)[C@@H]3OC4(O[C@H]23)O[C@H]([C@@H](N)CO)[C@H](O)[C@H](O)[C@H]4O)[C@@H]1O (stereo partly drawn)	NO
CN(CC[C@H](N)CC(=O)N[C@H]1C=C[C@H](n2ccc(N)nc2=O)O[C@@H]1C(=O)O)C(=N)N	NO
CN(C)C(=O)/N=N/C(=O)N(C)C [diamide]	NO
O=S(=O)(F)Cc1ccccc1	NO

###

- Tested on: E. coli strain W3110
- ASSAY REMARKS: Synergy assays: Biolog chemical sensitivity panels with Group IB metal, coefficient of drug interaction (CDI) from relative growth
- Type: cell-based
- MEASUREMENT CONTEXT: Gold section of Table 5; third of three gold concentrations (μM, value not given); biocide concentration 4 of 4
RESULT TYPE: CDI (coefficient of drug interaction)

COMPOUND	MEAS VALUE
C[n+]1ccc(-c2cc[n+](C)cc2)cc1	0.28
O=S(=O)(F)Cc1ccccc1	2.21
O=C(O)CI [lodoacetate]	Tox
CCCCCCCC[N+](C)(CCCCCCCC)CCCCCCCC.[Br-]	Tox
Cc1cc(O)cc(C)c1Cl	Tox
CN[C@H]1C[C@@H](N)[C@H](O)[C@@H](O[C@@H]2O[C@H](CO)[C@H](O)[C@@H]3OC4(O[C@H]23)O[C@H]([C@@H](N)CO)[C@H](O)[C@H](O)[C@H]4O)[C@@H]1O (some centres unmarked)	Tox
CN(C)C(=O)/N=N/C(=O)N(C)C [diamide]	Tox
CCCCCCCCCCCCNC(=N)N	Tox
Nc1n[nH]c(N)n1	Tox
O=C1C=C(O)C(=O)c2ccccc21	Tox
CCn1cc(C(=O)O)c(=O)c2ccc(C)nc21	Tox

###

- Tested on: E. coli strain W3110
- ASSAY REMARKS: Synergy assays: Biolog chemical sensitivity panels with Group IB metal, coefficient of drug interaction (CDI) from relative growth
- Format: cell-based
- MEASUREMENT CONTEXT: Copper (mM) section, 3rd of 3 copper concentrations (value not shown); 2nd of four biocide concentrations
RESULT TYPE: CDI (coefficient of drug interaction), copper mixed with biocide

MOLECULE	MEAS VALUE
N.N.N.N.N.N.[Cl-].[Cl-].[Cl-].[Co+3] [hexammine cobalt (III) chloride]	0.90
CN[C@H]1C[C@@H](N)[C@H](O)[C@@H](O[C@@H]2O[C@H](CO)[C@H](O)[C@@H]3OC4(O[C@H]23)O[C@H]([C@@H](N)CO)[C@H](O)[C@H](O)[C@H]4O)[C@@H]1O (stereo partly drawn)	0.79
CN[C@@H]1[C@@H](O)[C@@H](O[C@@H]2[C@@H](O)[C@H](O[C@H]3O[C@H]([C@@H](C)O)[C@@H](O)[C@H](O)[C@H]3N)[C@@H](N)C[C@H]2N)OC[C@]1(C)O	0.50
CCCCCCCCCCCC[N+](C)(C)CCCS(=O)(=O)O	0.80
CCCCCCCCCCCC[N+](C)(C)C.[Br-]	0.73
O=C1C=C2C(=CCOC2O)O1 (stereo not drawn)	Tox
CCCCCCCC[N+](C)(CCCCCCCC)CCCCCCCC.[Br-]	0.80
CN(C)C(=O)/N=N/C(=O)N(C)C [diamide]	0.51
C[n+]1ccc(-c2cc[n+](C)cc2)cc1	0.64
